Listing of recorded pIC50 by entry.
# SUBJECT OF TEST: PI3K (p110α/p85α) (Homo sapiens)
# Construct: purchased Carna Biosciences 07CBS-0402A
# PROTOCOL TEXT: PI3K activity assay (ADP Hunter Plus)
# Assay type: biochemical
# EXPERIMENTAL CONTEXT: read-out: PI3K alpha activity (semi-quantitative IC50)
pIC50: −log10 of the molar value.

{"columns": ["SMILES CODE", "pIC50"],
 "data": [
  ["COc1ncc2cc1NS(=O)(=O)c1cccc(c1)C(=O)NC[C@H]1CCN(C1)c1ncnc3c1SC2=C3C", "> 7.00"],
  ["COc1ccc2cc1C(=O)NCC1=CC=C(S1)c1ncnc3c1SC(=C3)c1cnc(OC)c(c1)NS2(=O)=O", "6.00 to 7.00"],
  ["O=C1NCc2cccc(c2)-c2cnn3ccc(nc23)-c2cnc(O)c(c2)NS(=O)(=O)c2cccc1c2", "6.00 to 7.00"],
  ["COc1ncc2cc1NS(=O)(=O)c1ccc(Cl)c(c1)C(=O)NCC1=CC=C(S1)c1ncnc3c1SC2=C3", "> 7.00"]
]}

* * *

# SUBJECT OF TEST: PI3K (p110α/p85α) (Homo sapiens, UniProt P42336)
# Construct: purchased Carna Biosciences 07CBS-0402A
# Sequence (P42336 whole entry): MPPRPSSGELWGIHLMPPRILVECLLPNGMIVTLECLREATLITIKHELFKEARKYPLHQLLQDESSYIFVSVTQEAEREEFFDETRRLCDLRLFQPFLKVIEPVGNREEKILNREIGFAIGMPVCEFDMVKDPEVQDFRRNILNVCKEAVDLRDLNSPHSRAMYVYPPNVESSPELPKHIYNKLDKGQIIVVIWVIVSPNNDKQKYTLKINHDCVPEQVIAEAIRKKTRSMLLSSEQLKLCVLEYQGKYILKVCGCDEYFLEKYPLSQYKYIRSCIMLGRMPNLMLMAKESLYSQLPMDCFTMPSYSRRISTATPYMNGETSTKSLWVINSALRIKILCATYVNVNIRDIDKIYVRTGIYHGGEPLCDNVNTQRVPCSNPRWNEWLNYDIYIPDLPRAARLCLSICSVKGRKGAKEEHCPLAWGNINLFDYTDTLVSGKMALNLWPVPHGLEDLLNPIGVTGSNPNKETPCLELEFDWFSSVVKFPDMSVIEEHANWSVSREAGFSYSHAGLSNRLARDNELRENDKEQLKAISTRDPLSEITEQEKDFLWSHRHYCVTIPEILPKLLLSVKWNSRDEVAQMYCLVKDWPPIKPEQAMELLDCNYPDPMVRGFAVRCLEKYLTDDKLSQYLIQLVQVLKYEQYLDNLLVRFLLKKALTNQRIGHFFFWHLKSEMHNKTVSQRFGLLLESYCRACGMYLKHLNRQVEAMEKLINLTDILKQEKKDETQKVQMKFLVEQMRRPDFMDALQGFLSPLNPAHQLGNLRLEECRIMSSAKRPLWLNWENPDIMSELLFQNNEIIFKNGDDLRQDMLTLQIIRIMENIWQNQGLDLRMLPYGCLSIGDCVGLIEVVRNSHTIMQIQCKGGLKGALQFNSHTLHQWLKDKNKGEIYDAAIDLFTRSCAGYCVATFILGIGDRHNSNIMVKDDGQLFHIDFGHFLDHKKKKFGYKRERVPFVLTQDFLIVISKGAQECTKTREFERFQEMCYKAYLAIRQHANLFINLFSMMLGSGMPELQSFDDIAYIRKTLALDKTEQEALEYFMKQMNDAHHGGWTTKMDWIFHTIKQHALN
# Sequence (P27986 whole entry partner): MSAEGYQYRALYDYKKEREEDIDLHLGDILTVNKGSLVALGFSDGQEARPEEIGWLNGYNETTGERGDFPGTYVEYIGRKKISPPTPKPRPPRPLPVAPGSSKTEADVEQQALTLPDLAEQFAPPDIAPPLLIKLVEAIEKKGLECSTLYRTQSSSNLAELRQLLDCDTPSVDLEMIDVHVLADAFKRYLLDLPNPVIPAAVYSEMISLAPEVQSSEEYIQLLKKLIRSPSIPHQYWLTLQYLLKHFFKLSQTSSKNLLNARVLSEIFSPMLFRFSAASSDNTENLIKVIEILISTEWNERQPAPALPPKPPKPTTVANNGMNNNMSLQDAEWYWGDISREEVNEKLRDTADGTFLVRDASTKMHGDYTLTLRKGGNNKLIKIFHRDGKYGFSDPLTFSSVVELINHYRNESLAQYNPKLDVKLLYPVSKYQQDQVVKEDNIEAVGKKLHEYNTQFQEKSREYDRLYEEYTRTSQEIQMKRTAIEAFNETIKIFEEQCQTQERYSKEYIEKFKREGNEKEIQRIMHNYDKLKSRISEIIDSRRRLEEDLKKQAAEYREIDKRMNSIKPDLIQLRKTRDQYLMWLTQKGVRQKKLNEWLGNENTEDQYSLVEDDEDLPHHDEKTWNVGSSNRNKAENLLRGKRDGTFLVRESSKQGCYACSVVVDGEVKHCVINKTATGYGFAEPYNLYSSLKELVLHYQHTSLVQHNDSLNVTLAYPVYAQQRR
# PROTOCOL TEXT: PI3K activity assay (ADP Hunter Plus)
# Type: biochemical
# EXPERIMENTAL CONTEXT: read-out: PI3K alpha activity, IC50 (semi-quantitative class)
Listing of recorded IC50 by entry.

{"columns": ["SMILES CODE", "IC50"],
 "data": [
  ["COc1ncc2cc1NS(=O)(=O)c1cccc(c1)C(=O)NCC1CCN(CC1)c1ncnc3ccc-2cc13", "< 100 nM"],
  ["COc1ncc2cc1NS(=O)(=O)c1cccc(c1)C(=O)NCC1=CC=C(S1)c1ncnc3c1SC2=C3", "100 to 1000 nM"],
  ["COc1ncc2cc1NS(=O)(=O)c1cccc(c1)C(=O)NCc1cncc(c1)-c1ncnc3c1SC2=C3", "100 to 1000 nM"],
  ["O=C1NCc2cncc(c2)-c2ccnc3ccc(cc23)-c2cncc(c2)NS(=O)(=O)c2cccc1c2", "< 100 nM"],
  ["COc1ncc2cc1NS(=O)(=O)c1cccc(c1)C(=O)NCC1=CC=C(S1)c1ccnc3c1SC2=C3", "100 to 1000 nM"],
  ["COc1ncc2cc1NS(=O)(=O)c1cccc(c1)C(=O)NCc1cc(ccc1F)-c1ncnc3c1SC2=C3", "100 to 1000 nM"],
  ["COc1ncc2cc1NS(=O)(=O)c1cccc(c1)C(=O)NCc1cc(ccn1)-c1ccnc3ccc-2cc13", "< 100 nM"],
  ["COc1ncc2cc1NS(=O)(=O)c1cccc(c1)C(=O)NCCN1CC=C(CC1)c1cnc3ccc-2cn13", "< 100 nM"],
  ["COc1ncc2cc1NS(=O)(=O)c1cccc(c1)C(=O)NC[C@@H]1CN(CCO1)c1ncnc3c1SC2=C3", "100 to 1000 nM"],
  ["COc1ncc2cc1NS(=O)(=O)c1cc(c(F)cc1F)C(=O)NCc1cncc(c1)-c1ccnc3ccc-2nc13", "< 100 nM"],
  ["COc1ncc2cc1NS(=O)(=O)c1cc(ccc1F)C(=O)NCc1cncc(c1)-c1ncnc3c1SC2=C3", "100 to 1000 nM"],
  ["COc1ncc2cc1NS(=O)(=O)c1cccc(c1)C(=O)NCc1cncc(c1)-c1nc(C(C)C)nc3c1SC2=C3", "> 1000 nM"],
  ["COc1ncc2cc1NS(=O)(=O)c1cccc(c1)C(=O)N[C@@H]1CCCN(C1)c1ncnc3c1SC2=C3", "> 1000 nM"],
  ["COc1ncc2cc1NS(=O)(=O)c1cc(c(F)cc1F)C(=O)NCc1cccc(c1)-c1cnn3ccc-2nc13", "< 100 nM"],
  ["COc1ncc2cc1NS(=O)(=O)c1cccc(c1)C(=O)NCCn1cc(cn1)-c1nc(C(C)C)nc3c1SC2=C3", "> 1000 nM"],
  ["CC(C)Oc1ncc2cc1NS(=O)(=O)c1cccc(c1)C(=O)NCc1cncc(c1)-c1ncnc3c1SC2=C3", "> 1000 nM"],
  ["COc1ncc2cc1NS(=O)(=O)c1cccc(c1)C(=O)NC[C@@H]1CCCN(C1)c1ncnc3c1SC2=C3", "> 1000 nM"],
  ["COc1ncc2cc1NS(=O)(=O)c1cccc(c1)C(=O)NCCn1cc(cn1)-c1cnc3ccc-2cn13", "< 100 nM"]
]}
